- METHOD_NOTES: Pharmacokinetic profile / oral bioavailability in male SD rats
- Format: in vivo
- PROTOCOL_CONDITIONS: rat, plasma, IV, 5 mg/kg, DRD formulation
RECORDED_METRIC: half-life (h)
Expressed in h, but write only the number.

Ask: Requested read-out: half-life. Entry: CC1=C(c2ccc(NC(=O)c3ccncc3F)cc2)CN(c2nccs2)CC1.Cl.Cl
Reply: 1

----------
- METHOD_NOTES: Solubility in simulated gastric fluids
- Assay type: physicochemical
RECORDED_METRIC: solubility (µM)
Expressed in µM, but write only the number.

Ask: Requested read-out: solubility. Entry: CCC(Cl)C(=O)Nc1ccc(C2=C(C)CCN(c3nccs3)C2)cc1 (stereo not shown) [Compound 15]
Reply: 150

Ask: Also check CC1=C(c2ccc(NC(=O)c3ccc(F)cc3F)nc2)CN(c2nnn(C)n2)CC1 [Compound 21]
Reply: 150

Ask: Also check CC1=C(c2ccc(NC(=O)c3c(F)cncc3F)cc2)CN(c2nccs2)CC1 [Compound 32]
Reply: 150

Ask: Also check CC1=C(c2cnc(NC(=O)c3c(F)cccc3Cl)cn2)CN(c2nccs2)CC1 [Compound 20]
Reply: 150
